# System: B. fragilis
# details: 24 h
Ends that are not written are not given here.
Reported MIC values values for the following substances.
value-type: MIC values

                                  substance      result
0  GNFYRLFKDILKGGGKNLRIIRKGIHIIKKY-NH2 (C-terminus assumed) [CD8040_G2_3G]  62.5 µg/mL
1  LATKLKYEKEHKKMGKIFGAIWPLALGALKNLIK-NH2 [CD0126 + Lys_A1_1G]  >250 µg/mL
2  LATLKKYLKEHKKMGKIFGAIWPLALGALKNLIK-NH2 [CD0126 + Lys_A1_M3]  >250 µg/mL
3  NILRVLKQVWKGGGKNLRIIRKGIHIIKKY-NH2 (C-terminus assumed) [CD9232_G2_3G]  15.6 µg/mL
4  VPAKLLRVIKEIPGGFLKFLKKFFKKLK-NH2 [CD0714 + AF5_2G_M7]  >250 µg/mL
5  VPAKLLRVIDEIPGGKIFGAIWPLALGALKNLIK-NH2 [CD0714 + Lys_A1_2G]  >250 µg/mL
6  LATKLKYEKEHKKMGGGGFLKFLKKFFKKLKYY-NH2 [CD0126 + AF5_4G]  >250 µg/mL
7  VPAKLLRVIDEIPGGFLKFLKKFFKKLKY-NH2 [CD0714 + AF5_2G]  >250 µg/mL
8  VPAKLLRVIDEIPKLFKFLRKHLL-NH2 [CD0714 + BD2-21_NG]  >250 µg/mL
9  VPAKLLRVIKKIPGGFLKFLKKFFKKLK-NH2 [CD0714 + AF5_2G_M4]  62.5 µg/mL

* * *

# Test system: L. casei
# details: 24 h
Ends that are not written are not given here.
Reported MIC values values for the following substances.
value-type: MIC values (µg/mL)

>>> df
                                  substance  comparison_operator  quantitative_result
0  VPAKLLRVIDEIPGGFLKFLKKFFKKLKY-NH2 [CD0714 + AF5_2G]                    >                  250
1  GNFYRLFKDILKGGGKNLRIIRKGIHIIKKY-NH2 (C-terminus assumed) [CD8040_G2_3G]                    >                  250
2  VPAKLLRVIDEIPKLFKFLRKHLL-NH2 [CD0714 + BD2-21_NG]                    =                  125
3  NILRVLKQVWKGGGKNLRIIRKGIHIIKKY-NH2 (C-terminus assumed) [CD9232_G2_3G]                    =                  125
4  LATLKKYLKEHKKMGKIFGAIWPLALGALKNLIK-NH2 [CD0126 + Lys_A1_M3]                    >                  250

* * *

# Test system: C. difficile isolate CD1382 (ATCC 630, strain 1382)
# details: ATCC 630, 24 h
Ends that are not written are not given here.
Reported MIC values values for the following substances.
value-type: MIC values

In [3]: df
Out[3]:
                                  substance      result
0  VPAKLLRVIDEIPKLFKFLRKHLL-NH2 [CD0714 + BD2-21_NG]   7.8 µg/mL
1  LATKLKYEKEHKKMGGGGFLKFLKKFFKKLKYY-NH2 [CD0126 + AF5_4G]  15.6 µg/mL
2  VPAKLLRVIDEIPGGKIFGAIWPLALGALKNLIK-NH2 [CD0714 + Lys_A1_2G]  31.3 µg/mL
3  GNFYRLFKDILKGGGKNLRIIRKGIHIIKKY-NH2 (C-terminus assumed) [CD8040_G2_3G]  15.6 µg/mL
4  VPAKLLRVIDEIPGGFLKFLKKFFKKLKY-NH2 [CD0714 + AF5_2G]  31.3 µg/mL
5  LATLKKYLKEHKKMGKIFGAIWPLALGALKNLIK-NH2 [CD0126 + Lys_A1_M3]   3.9 µg/mL
6  VPAKLLRVIKKIPGGFLKFLKKFFKKLK-NH2 [CD0714 + AF5_2G_M4]   3.9 µg/mL
7  VPAKLLRVIKEIPGGFLKFLKKFFKKLK-NH2 [CD0714 + AF5_2G_M7]   7.8 µg/mL
8  NILRVLKQVWKGGGKNLRIIRKGIHIIKKY-NH2 (C-terminus assumed) [CD9232_G2_3G]   3.9 µg/mL
9  LATKLKYEKEHKKMGKIFGAIWPLALGALKNLIK-NH2 [CD0126 + Lys_A1_1G]   7.8 µg/mL

* * *

# Test system: L. casei
# details: 24 h
Ends that are not written are not given here.
value-type: MIC values

In [3]: df
Out[3]:
                                  substance      result
0  VPAKLLRVIKKIPGGFLKFLKKFFKKLK-NH2 [CD0714 + AF5_2G_M4]   125 µg/mL
1  VPAKLLRVIKEIPGGFLKFLKKFFKKLK-NH2 [CD0714 + AF5_2G_M7]  >250 µg/mL
2  LATKLKYEKEHKKMGGGGFLKFLKKFFKKLKYY-NH2 [CD0126 + AF5_4G]  >250 µg/mL
3  LATKLKYEKEHKKMGKIFGAIWPLALGALKNLIK-NH2 [CD0126 + Lys_A1_1G]  >250 µg/mL
4  VPAKLLRVIDEIPGGKIFGAIWPLALGALKNLIK-NH2 [CD0714 + Lys_A1_2G]  >250 µg/mL

* * *

# Tested on: C. difficile isolate CD1875 (ATCC BAA-1875)
# details: ATCC BAA-1875, 24 h
Ends that are not written are not given here.
value-type: MIC values (µg/mL)

>>> df
                                  substance  value_type  quantitative_result
0  LATKLKYEKEHKKMGGGGFLKFLKKFFKKLKYY-NH2 [CD0126 + AF5_4G]  MIC values                 15.6
1  VPAKLLRVIDEIPGGKIFGAIWPLALGALKNLIK-NH2 [CD0714 + Lys_A1_2G]  MIC values                 31.3
2  VPAKLLRVIKEIPGGFLKFLKKFFKKLK-NH2 [CD0714 + AF5_2G_M7]  MIC values                 15.6
3  LATKLKYEKEHKKMGKIFGAIWPLALGALKNLIK-NH2 [CD0126 + Lys_A1_1G]  MIC values                 15.6
4  LATLKKYLKEHKKMGKIFGAIWPLALGALKNLIK-NH2 [CD0126 + Lys_A1_M3]  MIC values                  7.8
5  VPAKLLRVIDEIPGGFLKFLKKFFKKLKY-NH2 [CD0714 + AF5_2G]  MIC values                 62.5
6  VPAKLLRVIKKIPGGFLKFLKKFFKKLK-NH2 [CD0714 + AF5_2G_M4]  MIC values                 15.6
7  NILRVLKQVWKGGGKNLRIIRKGIHIIKKY-NH2 (C-terminus assumed) [CD9232_G2_3G]  MIC values                 31.3
8  VPAKLLRVIDEIPKLFKFLRKHLL-NH2 [CD0714 + BD2-21_NG]  MIC values                 15.6
9  GNFYRLFKDILKGGGKNLRIIRKGIHIIKKY-NH2 (C-terminus assumed) [CD8040_G2_3G]  MIC values                 62.5
